System: Cellular tumor antigen p53 (Homo sapiens), P04637 [Y220C]
Test: Binding affinity to recombinant His-tagged p53 Y220C mutant DNA binding domain (94 to 312 residues) (unknown origin) assessed as induction of biotin-labeled consensus DNA binding by measuring […] concentration required to increase DNA binding incubated for 48 mins by TR-FRET assay
Settings: filed as activator
quantity: EC150 (nM)
Numbers only, in nM.

molecule=COc1cc(S(C)(=O)=O)ccc1NCC#Cc1cc2c(N[C@H]3CCN(C)C[C@H]3F)cccc2n1CC(F)(F)F unit_abbrev=nM value_measured=20
molecule="COc1cc(S(C)(=O)=O)ccc1NCC#Cc1cc2c(N[C@@H]3CCN(C)C[C@H]3F)cccc2n1CC(F)(F)F (racemic)" unit_abbrev=nM value_measured=20
molecule=COc1cc(S(C)(=O)=O)ccc1NCC#Cc1cc2c(N[C@@H]3CCN(C)C[C@@H]3F)cccc2n1CC(F)(F)F unit_abbrev=nM value_measured=8

Switching to the query record.
Reported EC150, molecule COc1cc(S(C)(=O)=O)ccc1NCC#Cc1cc2c(N[C@@H]3CCN(C)C[C@@H]3F)cccc2n1CC(F)(F)F (racemic) : ____
9
